Tested on: TNIK
Details: concentration: 1 μM, replicates: in singlicate; n = 1;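 also: KINOMEscan kinase panel screen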

[
  {
    "COMPOUND": "O=C(Nc1n[nH]c2nc(-c3cccs3)c(Br)cc12)C1CC1 [SB-735297]",
    "TARGET_SYSTEM": "TNIK",
    "RESULT_UNITS": "%",
    "%Inh": 17
  },
  {
    "COMPOUND": "Fc1ccc(-c2nc3n(c2-c2ccncc2)CCS3)cc1 [GI98581]",
    "TARGET_SYSTEM": "TNIK",
    "RESULT_UNITS": "%",
    "%Inh": 18
  },
  {
    "COMPOUND": "COc1ccc(CSc2nnc(-c3ccc4ncsc4c3)o2)cc1C(F)(F)F",
    "TARGET_SYSTEM": "TNIK",
    "RESULT_UNITS": "%",
    "%Inh": 0
  },
  {
    "COMPOUND": "Cc1ccc(NC(=O)Nc2ccccc2F)cc1-c1ccc(C(=O)Nc2ccncc2)cc1 [GSK1398477]",
    "TARGET_SYSTEM": "TNIK",
    "RESULT_UNITS": "%",
    "%Inh": 10
  },
  {
    "COMPOUND": "CS(=O)(=O)CCNCc1nc(-c2ccc3ncnc(Nc4ccc5c(cnn5Cc5ccccc5)c4)c3c2)cs1.Cl.Cl [GW569716]",
    "TARGET_SYSTEM": "TNIK",
    "RESULT_UNITS": "%",
    "%Inh": 0
  },
  {
    "COMPOUND": "COc1ccc(Nc2nccc(-c3ccc(NC(=O)c4cc5cc(F)ccc5[nH]4)cc3)n2)cc1 [GSK1229496]",
    "TARGET_SYSTEM": "TNIK",
    "RESULT_UNITS": "%",
    "%Inh": 0
  },
  {
    "COMPOUND": "Cc1ccccc1Cn1ccn2c(=O)cc(N3CCOCC3)nc12 [GSK2269905]",
    "TARGET_SYSTEM": "TNIK",
    "RESULT_UNITS": "%",
    "%Inh": 0
  },
  {
    "COMPOUND": "Nc1cccc(-c2ccc3c(N)n[nH]c3c2)n1 [GSK2192730]",
    "TARGET_SYSTEM": "TNIK",
    "RESULT_UNITS": "%",
    "%Inh": 24
  },
  {
    "COMPOUND": "COc1cc2ncnc(Nc3cccc(Br)c3)c2cc1OC.Cl [GI230329]",
    "TARGET_SYSTEM": "TNIK",
    "RESULT_UNITS": "%",
    "%Inh": 10
  },
  {
    "COMPOUND": "Cc1ccccc1-c1cc(-c2c[nH]nc2-c2ccccn2)ccn1 [GW680061]",
    "TARGET_SYSTEM": "TNIK",
    "RESULT_UNITS": "%",
    "%Inh": 8
  },
  {
    "COMPOUND": "Nc1nccc(-c2c(-c3ccc(F)cc3)ncn2C2CCN(Cc3ccccc3)CC2)n1 [SB-219980]",
    "TARGET_SYSTEM": "TNIK",
    "RESULT_UNITS": "%",
    "%Inh": 96.5
  },
  {
    "COMPOUND": "Cc1ccc(-c2nc(Nc3ccncc3)c3ccccc3n2)s1 [GSK189015]",
    "TARGET_SYSTEM": "TNIK",
    "RESULT_UNITS": "%",
    "%Inh": 8
  },
  {
    "COMPOUND": "Fc1ccc(-c2nn3cccc(F)c3c2-c2ccncc2)cc1 [GW475620]",
    "TARGET_SYSTEM": "TNIK",
    "RESULT_UNITS": "%",
    "%Inh": 32
  },
  {
    "COMPOUND": "COc1ccc(-c2coc3ccc(-c4nnc(C)o4)cc23)cc1",
    "TARGET_SYSTEM": "TNIK",
    "RESULT_UNITS": "%",
    "%Inh": 0
  },
  {
    "COMPOUND": "Cc1c(Cn2c(C)c(C)n3c(=O)cc(N4CCOCC4)nc23)cccc1C(F)(F)F [GSK2328680]",
    "TARGET_SYSTEM": "TNIK",
    "RESULT_UNITS": "%",
    "%Inh": 0
  },
  {
    "COMPOUND": "COC(=O)c1cccc(NC(=O)NC2CCN(c3ccnc(Nc4ccc(OC)cc4)n3)C2)c1 (stereo not shown) [GSK1379746]",
    "TARGET_SYSTEM": "TNIK",
    "RESULT_UNITS": "%",
    "%Inh": 0
  },
  {
    "COMPOUND": "CC(C)c1cc(-c2ccc3c(N)n[nH]c3c2)nc(N)n1 [GSK2250882]",
    "TARGET_SYSTEM": "TNIK",
    "RESULT_UNITS": "%",
    "%Inh": 14
  },
  {
    "COMPOUND": "CC[C@@H]1CO[C@H](C(=O)Nc2ccccc2)CN1c1cc(-c2ccc3c(N)n[nH]c3c2)nc(NC)n1 [GSK2376236]",
    "TARGET_SYSTEM": "TNIK",
    "RESULT_UNITS": "%",
    "%Inh": 0
  },
  {
    "COMPOUND": "CNc1nc(-c2ccc3c(N)n[nH]c3c2)cc(N2C[C@@H](C(=O)NC3CCCCC3)OC[C@H]2C)n1 [GSK2375584]",
    "TARGET_SYSTEM": "TNIK",
    "RESULT_UNITS": "%",
    "%Inh": 8
  }
]

----------
%Inh overview
Test system: FES
Settings: concentration: 1 μM, replicates: in singlicate; n = 1

[
  {
    "COMPOUND": "Cc1ccccc1Cn1ccn2c(=O)cc(N3CCOCC3)nc12",
    "TARGET_SYSTEM": "FES",
    "%Inh (%)": 9
  },
  {
    "COMPOUND": "CC(C)c1cc(-c2ccc3c(N)n[nH]c3c2)nc(N)n1",
    "TARGET_SYSTEM": "FES",
    "%Inh (%)": 19
  },
  {
    "COMPOUND": "COC(=O)c1cccc(NC(=O)NC2CCN(c3ccnc(Nc4ccc(F)cc4)n3)C2)c1 (stereo not drawn)",
    "TARGET_SYSTEM": "FES",
    "%Inh (%)": 0
  },
  {
    "COMPOUND": "Cc1cnc(N)c(/C=C/c2cncc(C(=O)NCCc3ccc(Cl)cc3Cl)c2)c1.Cl",
    "TARGET_SYSTEM": "FES",
    "%Inh (%)": 0
  },
  {
    "COMPOUND": "COc1cccc(NC(=O)Nc2ccc(C)c(-c3ccc(C(=O)Nc4ccncc4)cc3)c2)c1",
    "TARGET_SYSTEM": "FES",
    "%Inh (%)": 12
  },
  {
    "COMPOUND": "Cc1c(Cn2c3ccccc3n3c(=O)cc(N4CCOCC4)nc23)cccc1C(F)(F)F",
    "TARGET_SYSTEM": "FES",
    "%Inh (%)": 0
  },
  {
    "COMPOUND": "CNc1cc(-c2ccc3c(N)n[nH]c3c2)nc(N)n1",
    "TARGET_SYSTEM": "FES",
    "%Inh (%)": 9
  },
  {
    "COMPOUND": "COc1ccc(Nc2nccc(N3CCC(NC(=O)C(C)c4ccc(Cl)cc4)CC3)n2)cc1 (stereo not drawn)",
    "TARGET_SYSTEM": "FES",
    "%Inh (%)": 19
  },
  {
    "COMPOUND": "O=C(Nc1n[nH]c2nc(-c3ccco3)c(Br)cc12)C1CCN(Cc2ccccc2)C1.O=C(O)[C@H](O)[C@@H](O)C(=O)O (stereo not drawn)",
    "TARGET_SYSTEM": "FES",
    "%Inh (%)": 0
  },
  {
    "COMPOUND": "CC(=O)c1c(C)c2cnc(Nc3ccc(N4CCNCC4)cn3)nc2n(C2CCCC2)c1=O",
    "TARGET_SYSTEM": "FES",
    "%Inh (%)": 0
  },
  {
    "COMPOUND": "Cc1ccc(-c2nc(Nc3ccncc3)c3ccccc3n2)s1",
    "TARGET_SYSTEM": "FES",
    "%Inh (%)": 19
  },
  {
    "COMPOUND": "Cl.Cl.Cl.N#Cc1ccc(CCNc2nccc(-c3cccc(CN4CCNCC4)c3)n2)cc1",
    "TARGET_SYSTEM": "FES",
    "%Inh (%)": 6
  },
  {
    "COMPOUND": "Cn1cncc1C(=O)NC1CCN(c2ccnc(Nc3ccc(F)cc3)n2)C1 (stereo not drawn)",
    "TARGET_SYSTEM": "FES",
    "%Inh (%)": 0
  },
  {
    "COMPOUND": "COc1cccc(C2=C(Nc3cc(Cl)c(O)c(Cl)c3)C(=O)NC2=O)c1",
    "TARGET_SYSTEM": "FES",
    "%Inh (%)": 0
  },
  {
    "COMPOUND": "COc1ccc(CSc2nnc(-c3ccc4nccn4c3)o2)cc1C(F)(F)F",
    "TARGET_SYSTEM": "FES",
    "%Inh (%)": 14
  },
  {
    "COMPOUND": "NS(=O)(=O)c1cccc(N/C=C2\\C(=O)Nc3ccc(S(=O)(=O)Cc4c(Cl)cccc4Cl)cc32)c1",
    "TARGET_SYSTEM": "FES",
    "%Inh (%)": 1
  },
  {
    "COMPOUND": "COc1ccc(-c2coc3ccc(-c4nnc(C)o4)cc23)cc1",
    "TARGET_SYSTEM": "FES",
    "%Inh (%)": 22
  },
  {
    "COMPOUND": "Nc1ncnc2occ(-c3ccc4c(c3)CCN4C(=O)Cc3cc(F)ccc3F)c12",
    "TARGET_SYSTEM": "FES",
    "%Inh (%)": 0
  },
  {
    "COMPOUND": "COC(=O)C(Cc1ccccc1)NC(=O)NC1CCN(c2ccnc(Nc3ccc(F)cc3)n2)C1 (stereo not drawn)",
    "TARGET_SYSTEM": "FES",
    "%Inh (%)": 0
  },
  {
    "COMPOUND": "Nc1nccc(-c2c(-c3ccc(F)cc3)ncn2C2CCN(Cc3ccccc3)CC2)n1",
    "TARGET_SYSTEM": "FES",
    "%Inh (%)": 23
  },
  {
    "COMPOUND": "O=c1cc(N2CCOCC2)nc2n(Cc3ccccc3F)ccn12",
    "TARGET_SYSTEM": "FES",
    "%Inh (%)": 0
  },
  {
    "COMPOUND": "COc1ccc(Nc2nccc(NCCNC(=O)Nc3cc(C)ccc3C)n2)cc1",
    "TARGET_SYSTEM": "FES",
    "%Inh (%)": 4
  },
  {
    "COMPOUND": "O=C(Nc1n[nH]c2nc(-c3cccs3)c(Br)cc12)C1CC1",
    "TARGET_SYSTEM": "FES",
    "%Inh (%)": 10
  },
  {
    "COMPOUND": "COc1nccc(-c2c(-c3ccc(F)cc3)ncn2CCCN2CCOCC2)n1",
    "TARGET_SYSTEM": "FES",
    "%Inh (%)": 0
  },
  {
    "COMPOUND": "CC(C)c1ccc(O)cc1Nc1ccnc2ccc(C(F)(F)F)cc12",
    "TARGET_SYSTEM": "FES",
    "%Inh (%)": 0
  },
  {
    "COMPOUND": "COc1ccc2cc(-c3nc(-c4ccccc4C(C)C)[nH]c3-c3ccncc3)ccc2c1",
    "TARGET_SYSTEM": "FES",
    "%Inh (%)": 0
  },
  {
    "COMPOUND": "Fc1ccc(-c2nn3cccc(F)c3c2-c2ccncc2)cc1",
    "TARGET_SYSTEM": "FES",
    "%Inh (%)": 0
  },
  {
    "COMPOUND": "COc1cc2ncnc(Nc3cccc(Br)c3)c2cc1OC.Cl",
    "TARGET_SYSTEM": "FES",
    "%Inh (%)": 0
  },
  {
    "COMPOUND": "Cc1ccc(NC(=O)Nc2ccc(Cl)cc2)cc1-c1ccc(C(=O)Nc2ccncc2)cc1",
    "TARGET_SYSTEM": "FES",
    "%Inh (%)": 0
  },
  {
    "COMPOUND": "Cc1ccc(NC(=O)c2ccc(Cl)cc2)cc1-c1ccc(C(=O)Nc2ccncc2)cc1",
    "TARGET_SYSTEM": "FES",
    "%Inh (%)": 0
  },
  {
    "COMPOUND": "CS(=O)(=O)Cc1ccc(Nc2nccc(-c3c(-c4cccc(NC(=O)C5CCCCC5)c4)nn4ncccc34)n2)cc1",
    "TARGET_SYSTEM": "FES",
    "%Inh (%)": 0
  },
  {
    "COMPOUND": "Cn1cnc2c(N)ncnc21",
    "TARGET_SYSTEM": "FES",
    "%Inh (%)": 0
  },
  {
    "COMPOUND": "COc1ccc(Nc2nccc(N3CCC(NC(=O)c4cc5ccccc5s4)C3)n2)cc1 (stereo not drawn)",
    "TARGET_SYSTEM": "FES",
    "%Inh (%)": 0
  },
  {
    "COMPOUND": "CNCc1ccc2nc(NC(=O)c3ccc(C(C)(C)C)cc3)cn2c1",
    "TARGET_SYSTEM": "FES",
    "%Inh (%)": 1
  },
  {
    "COMPOUND": "CS(=O)(=O)CCNCc1nc(-c2ccc3ncnc(Nc4ccc(OCc5ccccc5)c(Cl)c4)c3c2)cs1.Cl",
    "TARGET_SYSTEM": "FES",
    "%Inh (%)": 0
  },
  {
    "COMPOUND": "O=C(Nc1n[nH]c2cc(-c3ccsc3)ccc12)C1CC1",
    "TARGET_SYSTEM": "FES",
    "%Inh (%)": 0
  }
]
